assay: in vitro
Assay type: in vitro ADME
cond: human, Caco-2
attribute measured: Papp A→B at 1.8 mg/mL (×10⁻⁶ cm/s)
Give a bare numeral; the unit ×10⁻⁶ cm/s is implied.

Item: CS(=O)(=O)N[C@@H](CCCCN)C(=O)NC[C@H](CC1(C(=O)N[C@@H](Cc2ccc(O)cc2)C(=O)O)CCCC1)C(=O)O | Papp A→B at 1.8 mg/mL: 0.16
